Please provide measured EC50 for the entries that follow.
target_desc: HER2 wildtype (WT) protein (Homo sapiens, UniProt P04626)
Construct: BT474 and N87 cell lines which endogenously overexpress the HER2 wildtype (WT) protein; endogenous in cells; host or cells: BT474, N87
Sequence (P04626 23-1255): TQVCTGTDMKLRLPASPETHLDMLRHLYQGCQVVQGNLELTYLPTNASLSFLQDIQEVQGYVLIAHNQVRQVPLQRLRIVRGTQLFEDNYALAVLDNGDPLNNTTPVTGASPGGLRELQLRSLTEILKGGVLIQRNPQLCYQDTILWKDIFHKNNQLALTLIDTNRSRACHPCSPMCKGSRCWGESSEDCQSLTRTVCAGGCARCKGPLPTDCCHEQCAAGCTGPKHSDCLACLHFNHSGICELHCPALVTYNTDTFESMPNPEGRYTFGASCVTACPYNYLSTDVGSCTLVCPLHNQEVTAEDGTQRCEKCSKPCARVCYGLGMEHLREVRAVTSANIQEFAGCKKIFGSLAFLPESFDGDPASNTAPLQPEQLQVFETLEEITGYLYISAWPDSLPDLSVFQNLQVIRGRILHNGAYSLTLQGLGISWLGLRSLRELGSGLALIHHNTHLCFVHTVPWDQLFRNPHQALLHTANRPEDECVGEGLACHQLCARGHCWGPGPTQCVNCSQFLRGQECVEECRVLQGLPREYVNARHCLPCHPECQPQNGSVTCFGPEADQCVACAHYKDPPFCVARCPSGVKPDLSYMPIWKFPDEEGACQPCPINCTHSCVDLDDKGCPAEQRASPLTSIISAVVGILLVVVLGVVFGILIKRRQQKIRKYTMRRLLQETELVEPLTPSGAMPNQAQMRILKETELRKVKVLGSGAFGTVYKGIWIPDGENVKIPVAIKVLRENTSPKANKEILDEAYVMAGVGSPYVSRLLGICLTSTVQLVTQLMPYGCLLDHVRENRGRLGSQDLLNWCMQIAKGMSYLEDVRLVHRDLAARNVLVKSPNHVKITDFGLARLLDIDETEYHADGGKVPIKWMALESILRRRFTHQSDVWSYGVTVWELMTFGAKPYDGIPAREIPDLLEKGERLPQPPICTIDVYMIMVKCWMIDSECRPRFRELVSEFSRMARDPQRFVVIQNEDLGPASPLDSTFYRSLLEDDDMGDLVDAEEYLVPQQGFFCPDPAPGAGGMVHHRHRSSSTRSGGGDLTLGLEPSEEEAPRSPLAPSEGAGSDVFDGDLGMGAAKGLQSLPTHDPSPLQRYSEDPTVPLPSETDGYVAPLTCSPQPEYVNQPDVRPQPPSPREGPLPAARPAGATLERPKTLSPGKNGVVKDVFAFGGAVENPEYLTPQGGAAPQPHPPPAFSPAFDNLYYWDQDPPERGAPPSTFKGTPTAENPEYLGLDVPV
assay_info: HER2 signaling (pHER2 Tyr1248/total HER2 MSD) in BT474 cells
Format: cell-based
condition_notes: 1.5 hr compound, 1% FBS

Cc1ccc(Oc2ccc(Nc3ncnc4sc5c(c34)CCN(C(=O)/C=C/CN3CCC[C@H](n4cccn4)C3)C5)cc2C)cn1 [Compound 112] = < 100 nM
Cc1ccc(Oc2ccc(Nc3ncnc4sc5c(c34)CC(C)N(C(=O)C=CCN(C)C)C5C)cc2C)cn1 (single isomer, unassigned) [Compound 161] = < 100 nM
Cc1cc(Nc2ncnc3sc4c(c23)CCN(C(=O)/C=C/CN(C)C(C)(C)C)C4)ccc1Oc1ccc2ncnn2c1 [Compound 80] = < 100 nM
CN(C)C/C=C/C(=O)N1CCc2c(sc3ncnc(Nc4ccc(Oc5ccc6ncnn6c5)c(Cl)c4)c23)C1 [Compound 5] = < 100 nM
Cc1ccc(Oc2ccc(Nc3ncnc4sc5c(c34)CCN(C(=O)/C=C/CNCc3ccsc3)C5)cc2C)cn1 [Compound 52] = < 100 nM

Give one value of EC50 per listed compound.
1. COc1ccc(Oc2ccc(Nc3ncnc4sc5c(c34)C(C)CN(C(=O)C=CCN(C)C)C5)cc2C)cn1 (single isomer, unassigned) [Compound 159]
2. O=C(/C=C/CN1CCOCC1)N1CCc2c(sc3ncnc(Nc4ccc(Oc5ccc6ncnn6c5)c(Cl)c4)c23)C1 [Compound 18]
3. Cc1ccc(Oc2ccc(Nc3ncnc4sc5c(c34)CN(C(=O)/C=C/CN(C)C)C5C)cc2C)cn1 (stereo not drawn) [Compound 153]

Data returned:
["< 100 nM", "< 100 nM", "< 100 nM"]

###

Please provide measured EC50 for the entries that follow.
target_desc: EGFR (Homo sapiens)
assay_info: EGFR signaling (pEGFR Tyr1068/total EGFR MSD) in A431 cells
Format: cell-based
Parameters: endogenous in cells; host or cells: A431, N87
condition_notes: A431 cells; read-out: A431 pEGFR EC50

Example cases with answers are listed next.
Cc1ccc(Oc2ccc(Nc3ncnc4sc5c(c34)CCN(C(=O)/C=C/CN3CCOC4(CCC4)C3)C5)cc2C)cn1 [Compound 30] = 100 to 1000 nM
Cc1ccc(Oc2ccc(Nc3ncnc4sc5c(c34)CCN(C(=O)/C=C/CN3CC4CCC3C4)C5)cc2C)cn1 (stereo not shown) [Compound 14] = < 100 nM
Cc1ccc(Oc2ccc(Nc3ncnc4[nH]c5c(c34)CN(C(=O)/C=C/CN(C)C)CC5)cc2C)cn1 [Compound 97] = 100 to 1000 nM

// next item, EC50 requested
Lab note: measured EC50 of Cc1cc(Nc2ncnc3sc4c(c23)CCN(C(=O)/C=C/CN(C)C)C4)ccc1Oc1ccc2nonc2c1 [Compound 104] was < 100 nM

###

target_desc: EGFR (Homo sapiens, UniProt P00533)
Sequence (P00533 25-1210): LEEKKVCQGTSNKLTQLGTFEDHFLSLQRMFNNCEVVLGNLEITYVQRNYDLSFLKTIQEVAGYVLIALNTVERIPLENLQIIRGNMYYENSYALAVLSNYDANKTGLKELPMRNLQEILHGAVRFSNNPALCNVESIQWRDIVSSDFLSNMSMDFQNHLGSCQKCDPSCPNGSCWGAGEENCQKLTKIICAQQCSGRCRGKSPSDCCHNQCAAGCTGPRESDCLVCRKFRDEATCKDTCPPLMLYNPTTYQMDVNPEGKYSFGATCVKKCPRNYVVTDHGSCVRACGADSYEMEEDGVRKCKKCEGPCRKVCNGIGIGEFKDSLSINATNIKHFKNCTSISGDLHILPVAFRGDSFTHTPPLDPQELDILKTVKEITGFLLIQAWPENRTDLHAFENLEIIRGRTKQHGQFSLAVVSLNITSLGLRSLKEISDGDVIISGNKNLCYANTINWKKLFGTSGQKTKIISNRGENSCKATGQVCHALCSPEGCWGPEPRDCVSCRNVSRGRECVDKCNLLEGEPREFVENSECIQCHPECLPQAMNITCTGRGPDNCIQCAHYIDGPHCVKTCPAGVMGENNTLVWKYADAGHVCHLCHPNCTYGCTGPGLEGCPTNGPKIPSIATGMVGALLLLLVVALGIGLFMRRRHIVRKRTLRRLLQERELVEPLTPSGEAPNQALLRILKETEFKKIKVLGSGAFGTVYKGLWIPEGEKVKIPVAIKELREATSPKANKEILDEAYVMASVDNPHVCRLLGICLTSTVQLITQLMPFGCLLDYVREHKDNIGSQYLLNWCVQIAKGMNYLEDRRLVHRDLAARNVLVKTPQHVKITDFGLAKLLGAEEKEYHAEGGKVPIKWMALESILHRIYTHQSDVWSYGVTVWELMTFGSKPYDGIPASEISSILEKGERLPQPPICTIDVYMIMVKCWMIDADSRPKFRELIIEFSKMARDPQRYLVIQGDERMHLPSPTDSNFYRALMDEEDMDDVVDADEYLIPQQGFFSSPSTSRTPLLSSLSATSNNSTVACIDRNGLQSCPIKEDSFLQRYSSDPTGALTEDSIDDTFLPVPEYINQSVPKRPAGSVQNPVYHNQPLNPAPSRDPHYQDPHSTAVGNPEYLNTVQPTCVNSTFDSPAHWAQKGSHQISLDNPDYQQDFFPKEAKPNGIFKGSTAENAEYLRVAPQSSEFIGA
assay_info: EGFR signaling (pEGFR Tyr1068/total EGFR MSD) in A431 cells
Format: cell-based
Set-up: endogenous in cells; host or cells: A431, N87
condition_notes: ratio A431 pEGFR EC50 to HEK YVMA pHER2 EC50
readout_name: Selectivity A431 EC50/HEKYVMA EC50

Example cases with answers are listed next.
Cc1ccc(Oc2ccc(Nc3ncnc4sc5c(c34)CCN(C(=O)/C=C/CN3CC4CC(C3)O4)C5)cc2C)cn1 = B (B: ≥ 20 and < 100)
O=C(/C=C/CN1CC2CC(C2)C1)N1CCc2c(sc3ncnc(Nc4ccc(Oc5ccc6ncnn6c5)c(Cl)c4)c23)C1 = C (C: ≥ 10 and < 20)
Cc1cc(Nc2ncnc3sc4c(c23)CCN(C(=O)/C=C/CN(C)C)C4)ccc1Oc1ccc2scnc2c1 = A (A: ≥100)
C=CC(=O)N1Cc2sc3ncnc(Nc4ccc(Oc5ccc(C)nc5)c(C)c4)c3c2C(C)C1 (single isomer, unassigned) [Compound 145] = E (E: >1 and < 5)
Cc1cc(Nc2ncnc3sc4c(c23)CCN(C(=O)/C=C/CN2CCOCC2)C4)ccc1Oc1ccc2ncnn2c1 = B (B: ≥ 20 and < 100)
Cc1ccc(Oc2ccc(Nc3ncnc4sc5c(c34)CCN(C(=O)/C=C/CN3CCCC3C(N)=O)C5)cc2C)cn1 (centres unmarked) = C (C: ≥ 10 and < 20)
Cc1ccc(Oc2ccc(Nc3ncnc4sc5c(c34)CCN(C(=O)/C=C/CN3CCC(O)C3)C5)cc2C)cn1 (centres unmarked) = D (D: ≥ 5 and < 10)
Cc1ccc(Oc2ccc(Nc3ncnc4sc5c(c34)CCN(C(=O)/C=C/CN3CCC[C@H](n4cccn4)C3)C5)cc2C)cn1 = C (C: ≥ 10 and < 20)
Cc1ccc(Oc2ccc(Nc3ncnc4sc5c(c34)CCN(C(=O)/C=C/CN[C@H]3CC[C@H](OC4CC4)CC3)C5)cc2C)cn1 = E (E: >1 and < 5)
Cc1ccc(Oc2ccc(Nc3ncnc4sc5c(c34)CCN(C(=O)/C=C/CN3CC(C)(C)OC(C)(C)C3)C5)cc2C)cn1 = C (C: ≥ 10 and < 20)

Give one value of Selectivity A431 EC50/HEKYVMA EC50 per listed compound.
1. CON(C)C/C=C/C(=O)N1CCc2c(sc3ncnc(Nc4ccc(Oc5ccc(C)nc5)c(C)c4)c23)C1
2. C=C(CN1CCc2c(sc3ncnc(Nc4ccc(Oc5ccc(C)nc5)c(C)c4)c23)C1)C(=O)OCC
3. Cc1ccc(Oc2ccc(Nc3ncnc4sc5c(c34)CCN(C(=O)/C=C/CNC3CCC3)C5)cc2C)cn1
4. Cc1ccc(Oc2ccc(Nc3ncnc4sc5c(c34)CN(C(=O)/C=C/CN(C)C)C5)cc2Cl)cn1
5. COc1ccc(Oc2ccc(Nc3ncnc4sc5c(c34)CCN(C(=O)/C=C/CN(C)C(C)(C)C)C5)cc2C)cn1
6. Cc1cn2ccc(Oc3ccc(Nc4ncnc5sc6c(c45)CCN(C(=O)/C=C/CN(C)C)C6)cc3C)cc2n1
7. Cc1ncc(Oc2ccc(Nc3ncnc4sc5c(c34)CCN(C(=O)/C=C/CN(C)C)C5)cc2C)cn1

Data returned:
1: B (B: ≥ 20 and < 100); 2: A (A: ≥100); 3: D (D: ≥ 5 and < 10); 4: B (B: ≥ 20 and < 100); 5: E (E: >1 and < 5); 6: C (C: ≥ 10 and < 20); 7: B (B: ≥ 20 and < 100)
